- test_target: cGMP-specific 3',5'-cyclic phosphodiesterase (Homo sapiens, UniProt O76074)
- experiment_summary: Inhibition of human PDE5A1 catalytic domain (535 to 860 residues) expressed in Escherichia coli strain BL21 using [3H]cAMP as substrate after 15 mins by liquid scintillation counter analysis
measurement_name: pIC50
Please treat pIC50 as minus the base-10 logarithm of the molar concentration.

-- ask Reported pIC50, molecule `CC(C)=C[C@H]1Oc2cc(O)ccc2-c2oc3c4c(cc(O)c3c(=O)c21)OC(C)(C)C=C4` : ____
-- reply 6.39

###

Measured pIC50, listed per entry for reference.
- test_target: 3',5'-cyclic-AMP phosphodiesterase 4D (Homo sapiens)
- Sequence (Q08499 whole entry, the tested form may be a part): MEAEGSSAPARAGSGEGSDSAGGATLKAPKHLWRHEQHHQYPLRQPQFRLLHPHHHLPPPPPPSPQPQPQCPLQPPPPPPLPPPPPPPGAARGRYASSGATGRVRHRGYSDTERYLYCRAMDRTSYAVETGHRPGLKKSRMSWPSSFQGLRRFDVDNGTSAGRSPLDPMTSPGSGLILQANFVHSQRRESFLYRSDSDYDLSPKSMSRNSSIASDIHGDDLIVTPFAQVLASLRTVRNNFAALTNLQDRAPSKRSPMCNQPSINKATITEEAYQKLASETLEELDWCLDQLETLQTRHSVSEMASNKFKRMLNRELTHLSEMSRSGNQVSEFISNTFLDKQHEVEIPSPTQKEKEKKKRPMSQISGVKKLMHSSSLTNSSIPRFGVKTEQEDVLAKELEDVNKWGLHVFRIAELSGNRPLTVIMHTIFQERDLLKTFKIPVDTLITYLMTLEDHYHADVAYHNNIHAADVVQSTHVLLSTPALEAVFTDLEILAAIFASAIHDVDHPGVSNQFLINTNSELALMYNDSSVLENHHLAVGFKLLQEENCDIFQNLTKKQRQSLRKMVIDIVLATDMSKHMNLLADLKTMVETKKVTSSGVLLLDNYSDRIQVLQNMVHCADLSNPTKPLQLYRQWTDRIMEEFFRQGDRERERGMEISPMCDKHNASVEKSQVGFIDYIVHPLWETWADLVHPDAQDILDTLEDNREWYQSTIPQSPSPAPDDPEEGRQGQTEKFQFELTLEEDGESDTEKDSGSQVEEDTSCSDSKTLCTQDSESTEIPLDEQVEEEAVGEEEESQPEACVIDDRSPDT
- experiment_summary: Inhibition of human PDE4D2 catalytic domain (86 to 413 residues) expressed in Escherichia coli strain BL21 using [3H]cAMP as substrate after 15 mins by liquid scintillation counter analysis
In textbook form, pIC50 equals minus log to base ten of the concentration in mol/L.

Example entries begin here.
# compound, pIC50
measured = [
    ("C=CC(C)(C)c1cc(-c2cc(=O)c3c(O)cc(O)cc3o2)c(O)cc1O", 5.73),
    ("CC(C)=CCCC1(C)C=Cc2c(ccc(-c3oc4cc(O)cc(O)c4c(=O)c3CC=C(C)C)c2O)O1 (stereo not drawn)", 6.57),
    ("CC(C)=C[C@H]1Oc2cc(O)ccc2-c2oc3c4c(cc(O)c3c(=O)c21)OC(C)(C)C=C4", 8.27),
    ("CC(C)=CCc1c(O)cc(O)c2c(=O)cc(-c3ccc(O)cc3)oc12", 6.20),
    ("CC(C)C[C@H]1Oc2cc(O)ccc2-c2oc3c4c(cc(O)c3c(=O)c21)OC(C)(C)CC4", 5.36),
    ("CC(C)=CCCC1(C)C=Cc2cc(C3CC(=O)c4c(O)cc(O)cc4O3)c(O)cc2O1 (stereo not drawn)", 5.44),
    ("CC(C)=CCc1cc([C@@H]2CC(=O)c3c(O)cc(O)cc3O2)c(O)c(CC=C(C)C)c1O", 5.00),
    ("CC1(C)C=Cc2c(ccc(-c3cc(=O)c4c(O)cc5c(c4o3)C=CC(C)(C)O5)c2O)O1", 7.52),
    ("CC(C)=CCC/C(C)=C/Cc1cc([C@@H]2CC(=O)c3c(O)cc(O)cc3O2)c(O)cc1O", 5.90),
    ("CC(C)=CCC/C(C)=C/Cc1c(O)c(CC=C(C)C)cc([C@@H]2CC(=O)c3c(O)cc(O)cc3O2)c1O", 5.66),
]

Now look at this one.
-- ask Name the reported pIC50 value associated with the compound `COc1ccc2c(c1)O[C@H](C=C(C)C)c1c-2oc2c3c(cc(O)c2c1=O)OC(C)(C)C=C3`
-- reply 5.29
